# System: MDA-MB-436
# assay-explanation: normalised response (% of control), CellTiter-Glo; higher = more viable cells (100 = DMSO, 0 = benzethonium chloride kill control)
# assay-setup: incubation time: 72 h
Reported values of normalised response for individual entries
// units = %; emit number, no label

CS(=O)(=O)c1ccc(C2=C(c3ccccc3)C(=O)OC2)cc1 [Rofecoxib] (1 nM); 103

get_value(item= Cc1ccc(-n2nc(C(C)(C)C)cc2NC(=O)Nc2ccc(OCCN3CCOCC3)c3ccccc23)cc1 [Doramapimod] (10 nM) , readout=normalised response) returns 98.1

get_value(item= N.N.[Cl][Pt][Cl] [Cisplatin] (100 nM) , readout=normalised response) returns 101

get_value(item= CCC1(c2ccc(N)cc2)CCC(=O)NC1=O (stereo not drawn) [Aminoglutethimide] (1 nM) , readout=normalised response) returns 87.3

get_value(item= N[C@@H](CSC(c1ccccc1)(c1ccccc1)c1ccccc1)C(=O)O [S-trityl-L-cysteine] (4000 nM) , readout=normalised response) returns 100

get_value(item= C[C@@H](Oc1cc(-c2cnn(C3CCNCC3)c2)cnc1N)c1c(Cl)ccc(F)c1Cl [Crizotinib] (0.1 nM) , readout=normalised response) returns 96.7

get_value(item= Cc1ccc(C(=O)Nc2ccc(CN3CCN(C)CC3)c(C(F)(F)F)c2)cc1C#Cc1cnc2cccnn12 [Ponatinib] (100 nM) , readout=normalised response) returns 97

get_value(item= C#Cc1cccc(Nc2ncnc3cc(OCCOC)c(OCCOC)cc23)c1 [Erlotinib] (1000 nM) , readout=normalised response) returns 99.9

* * *

# Test system: CAL-148
# assay-explanation: normalised viability (% of control), CellTiter-Blue; higher = more viable cells (about 100 = DMSO control)
# assay-setup: incubation time: 72 h
experimental-endpoint: normalised viability (%)
// units = %; emit number, no label

These solved cases illustrate the format of a correct answer.
Cc1ccc(-n2nc(C(C)(C)C)cc2NC(=O)Nc2ccc(OCCN3CCOCC3)c3ccccc23)cc1 [Doramapimod] (1000 nM); 105
N.N.[Cl][Pt][Cl] [Cisplatin] (1000 nM); 112

get_value(item= NCC(=O)CCC(=O)O [Aminolevulinic acid] (1000 nM) , readout=normalised viability) returns 95

get_value(item= CO[C@H]1/C=C\C=C(/C)C(=O)NC2=CC(=O)C(NCCN(C)C)=C(C[C@@H](C)C[C@H](OC)[C@H](O)[C@@H](C)/C=C(\C)[C@@H]1OC(N)=O)C2=O [Alvespimycin] (100 nM) , readout=normalised viability) returns 15.6

get_value(item= COc1cc2nccc(Oc3ccc(NC(=O)C4(C(=O)Nc5ccc(F)cc5)CC4)cc3)c2cc1OC [Cabozantinib] (100 nM) , readout=normalised viability) returns 107

* * *

# Tested on: HDQ-P1
# assay-explanation: normalised response (% of control), CellTiter-Glo; higher = more viable cells (100 = DMSO, 0 = benzethonium chloride kill control)
# assay-setup: incubation time: 72 h
experimental-endpoint: normalised response (%)
// units = %; emit number, no label

These solved cases illustrate the format of a correct answer.
CO[C@H]1/C=C\C=C(/C)C(=O)NC2=CC(=O)C(NCCN(C)C)=C(C[C@@H](C)C[C@H](OC)[C@H](O)[C@@H](C)/C=C(\C)[C@@H]1OC(N)=O)C2=O [Alvespimycin] (0.1 nM); 94.8
O=P1(NCCCl)OCCCN1CCCl (configuration not stated) [Ifosfamide] (1000 nM); 104
CC1(C)NC(=O)N(c2ccc([N+](=O)[O-])c(C(F)(F)F)c2)C1=O [Nilutamide] (1000 nM); 97.7
C[C@@H](Oc1cc(-c2cnn(C3CCNCC3)c2)cnc1N)c1c(Cl)ccc(F)c1Cl [Crizotinib] (100 nM); 98.8
Cc1ccc(C(=O)Nc2ccc(CN3CCN(C)CC3)c(C(F)(F)F)c2)cc1C#Cc1cnc2cccnn12 [Ponatinib] (0.1 nM); 104

Consider now this further compound.
get_value(item= COc1cc2ncnc(Nc3ccc(F)c(Cl)c3)c2cc1NC(=O)/C=C/CN1CCCCC1 [Dacomitinib] (100 nM) , readout=normalised response) returns 68.6
